# SYSTEM NAME: T1, Dimeric Mouse Ang-2FD conjugated to human IgG1 (mouse (Mus musculus); human)
# T1 construct: also called Mouse Ang-2FD-hFc
# T1 sequence (chain, as listed by the source limits assumed): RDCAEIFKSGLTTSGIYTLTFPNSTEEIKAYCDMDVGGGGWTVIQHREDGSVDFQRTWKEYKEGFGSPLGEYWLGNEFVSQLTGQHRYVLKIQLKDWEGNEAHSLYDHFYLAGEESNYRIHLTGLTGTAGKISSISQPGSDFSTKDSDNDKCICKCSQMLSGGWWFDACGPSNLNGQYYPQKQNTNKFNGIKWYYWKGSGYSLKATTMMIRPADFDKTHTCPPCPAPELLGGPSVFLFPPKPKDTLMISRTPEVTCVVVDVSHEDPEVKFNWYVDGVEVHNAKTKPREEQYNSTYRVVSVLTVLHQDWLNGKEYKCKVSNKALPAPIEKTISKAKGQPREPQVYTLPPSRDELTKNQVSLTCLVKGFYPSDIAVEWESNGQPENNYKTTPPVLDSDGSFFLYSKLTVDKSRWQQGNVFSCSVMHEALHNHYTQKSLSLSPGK
# PROCEDURE DETAILS: SPR, captured Ab, RT
READOUT NAME: T1/2 (h)
Answer with a number only, understood to be in h.

Find the recorded T1/2 belonging to H1H743N (antibody, V domains shown) VH: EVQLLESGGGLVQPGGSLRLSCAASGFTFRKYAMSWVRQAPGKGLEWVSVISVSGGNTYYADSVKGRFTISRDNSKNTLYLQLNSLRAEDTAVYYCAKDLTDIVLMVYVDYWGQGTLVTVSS VL: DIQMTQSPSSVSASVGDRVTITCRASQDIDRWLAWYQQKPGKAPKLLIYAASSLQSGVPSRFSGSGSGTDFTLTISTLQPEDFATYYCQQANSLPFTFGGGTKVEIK and report it.
3.88
